Tested on: MOLT-4 leukemia
Assay: NCI tumour cell line growth inhibition, 48 h; in the data active means GI50 below about 0.43 µM; inactive means the rest
Outcome codes: active, inactive

>  <Compound>
c1ccc(COCC[P+](c2ccccc2)(c2ccccc2)c2ccccc2)cc1

>  <Category>
inactive

$$$$
>  <Compound>
C=C[C@H]1CN2CCc3c([nH]c4c([C@@H]5CCCN5C)c(O)ccc34)[C@@H]2C[C@@H]1C[C@H]1c2[nH]c3ccccc3c2CCN1C

>  <Category>
active

$$$$
>  <Compound>
CC(C)C(=O)Nc1ccc(-c2nc(-c3cccc(OCCN4CCOCC4)c3)c(-c3ccnc(Br)c3)[nH]2)cc1

>  <Category>
inactive

$$$$
>  <Compound>
O=C(NCCCl)NCCN1c2nc3ccccc3cc2Sc2cc3ccccc3nc21

>  <Category>
inactive

$$$$
>  <Compound>
[N-]=[N+]=NCCCn1c2c(c3ccc([N+](=O)[O-])cc3c1=O)C(=O)c1cc(I)ccc1-2

>  <Category>
inactive

$$$$
>  <Compound>
COc1ccc(C2=NN(C=O)C(c3ccc(OS(=O)(=O)c4ccc(C)cc4)c(OC)c3)C2)cc1 (stereo not given)

>  <Category>
inactive

$$$$
>  <Compound>
CN1C(=O)/C(=C2\S/C(=N\c3nnc(-c4ccccc4)o3)NC2=O)c2ccccc21

>  <Category>
inactive

$$$$
>  <Compound>
NS(=O)(=O)c1ccc(N=Nc2c(O)[nH]c3ccc(C(=O)NCCc4cnc[nH]4)cc23)cc1

>  <Category>
inactive

$$$$
>  <Compound>
CON=C1C[C@]2(C[C@@H]3C[C@@H](C/C=C(\C)C[C@@H](C)/C=C/C=C4\CO[C@@H]5[C@H](O)C(C)=C[C@@H](C(=O)O3)[C@]45O)O2)O[C@H](/C(C)=C/C(C)C)[C@H]1C

>  <Category>
inactive

$$$$
>  <Compound>
O=C(Nc1ccc(Oc2ccc(NC(=O)Nc3ccccc3Cl)cc2)cc1)Nc1ccccc1Cl

>  <Category>
inactive

$$$$
>  <Compound>
CCCCCCCCCCCCNC(=O)N[C@H](C(=O)N[C@H]1/C=C/CCNC(=O)/C=C/[C@H](C)NC1=O)C(C)C

>  <Category>
active

$$$$
>  <Compound>
CCC(CC)c1cc(N[C@H]2CC[C@H](N)C2)n2nccc2n1

>  <Category>
inactive

$$$$
>  <Compound>
CN1CCN(Cc2ccc(NC(=O)c3cncc(C#Cc4c(N)ncc5c(F)cccc45)c3)cc2C(F)(F)F)CC1

>  <Category>
inactive

$$$$
>  <Compound>
Fc1ccc(Nc2ncc(-c3cc(F)c(Cl)cc3Cl)s2)cc1Cl

>  <Category>
inactive

$$$$
>  <Compound>
N.N.N.N.N.N#Cc1nn[n-]n1.[Cl-].[Co+3]

>  <Category>
inactive

$$$$
>  <Compound>
C[C@@H]1CC[C@H]2[C@@H](C)C(OC/C=C/COC3O[C@@H]4O[C@@]5(C)CC[C@H]6[C@H](C)CC[C@@H]([C@H]3C)[C@@]46OO5)O[C@@H]3O[C@@]4(C)CC[C@@H]1[C@]32OO4 (stereo not given in full)

>  <Category>
active

$$$$
>  <Compound>
CCOC(=O)Nc1ccc2nc(N3CCCCCC3)sc2c1

>  <Category>
inactive

$$$$
>  <Compound>
COc1cccc(CCNC(=O)CC(c2ccccc2)(c2ccccc2)c2ccccc2)c1

>  <Category>
inactive

$$$$
>  <Compound>
CCC1=C[C@@H]2CN(C1)Cc1c([nH]c3ccccc13)[C@@](C(=O)OC)(c1cc3c(cc1OC)N(C)[C@H]1[C@@](O)(C(=O)OC)[C@H](OC(C)=O)[C@]4(CC)C=CCN5CC[C@]31[C@@H]54)C2

>  <Category>
active

$$$$
>  <Compound>
CCNC(=O)Oc1ccc(/C(=C(\C)c2ccc(Cl)cc2)c2ccc(OCCN(CC)CC)cc2)cc1

>  <Category>
inactive

$$$$
